Tested on: 186277-243-T-J2-PDC complex spheroid growth
PROCEDURE_TEXT: Anticancer human tumor 186277-243-T-J2-PDC patient-derived colon adenocarcinoma cell line growth inhibition [AhR]; active means viability on the fitted dose curve at most 10% of control; inactive means the rest
SETUP_CONDITIONS: second compound 10 µM; first compound 0.0316 µM
Pick one: active, inactive

Here's what some known entries look like.
1. COc1cccc2c1C(=O)c1c(O)c3c(c(O)c1C2=O)CC(O)(C(=O)CO)CC3OC1CC(N)C(O)C(C)O1 (stereo unspecified) + CC(CO)NC(=O)c1cc(-c2ccc(Cl)cc2)nn(-c2cnn(C)c2)c1=O : inactive
2. NS(=O)(=O)OCC1CC(n2ccc3c(NC4CCc5ccccc54)ncnc32)CC1O (stereo unspecified) + Cc1ccccc1N=Nc1ccc(NC(=O)c2ccnn2C)c(C)c1 : inactive
3. Nc1ncn(C2CC(O)C(CO)O2)c(=O)n1 (stereo unspecified) + CC(CO)NC(=O)c1cc(-c2ccc(Cl)cc2)nn(-c2cnn(C)c2)c1=O : inactive
4. Cn1ncnc1C1c2n[nH]c(=O)c3cc(F)cc(c23)NC1c1ccc(F)cc1 (stereo unspecified) + Cc1cncc(-c2nc(NCCc3c[nH]c4ccccc34)c3ncn(C(C)C)c3n2)c1 : inactive
5. Nc1ccn(C2OC(CO)C(O)C2(F)F)c(=O)n1 (stereo unspecified) + Cc1cncc(-c2nc(NCCc3c[nH]c4ccccc34)c3ncn(C(C)C)c3n2)c1 : active

From here, focus on the item given below.
Prompt: Could you kindly confirm the outcome this assay logged for COc1cc(C2c3cc4c(cc3C(OC3OC5COC(C)OC5C(O)C3O)C3COC(=O)C23)OCO4)cc(OC)c1O (stereo unspecified) + Cc1cncc(-c2nc(NCCc3c[nH]c4ccccc34)c3ncn(C(C)C)c3n2)c1 ?
Response: inactive

* * *

# viability, T/C per entry
Test system: 186277-243-T-J2-PDC complex spheroid growth
PROCEDURE_TEXT: Anticancer human tumor 186277-243-T-J2-PDC cell line growth inhibition [AhR];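 further: luminescent signal used as a stand-in for viable cell amount; spheroids exposed to compounds for seven days before the viability read; 100% = DMSO vehicle control wells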
SETUP_CONDITIONS: second compound 3.16 µM; first compound 10 µM; stronger effect = lower value
Report only the number, with the unit % understood.

Example entries and their recorded answers appear below.
1. O=C(C=Cc1cccc(S(=O)(=O)Nc2ccccc2)c1)NO + CC(CO)NC(=O)c1cc(-c2ccc(Cl)cc2)nn(-c2cnn(C)c2)c1=O : 0.28
2. COc1cccc2c1C(=O)c1c(O)c3c(c(O)c1C2=O)CC(O)(C(=O)CO)CC3OC1CC(N)C(O)C(C)O1 (stereo not given) + CC(CO)NC(=O)c1cc(-c2ccc(Cl)cc2)nn(-c2cnn(C)c2)c1=O : 0.64
3. Nc1ccccc1NC(=O)c1ccc(CNC(=O)OCc2cccnc2)cc1 + CC(CO)NC(=O)c1cc(-c2ccc(Cl)cc2)nn(-c2cnn(C)c2)c1=O : 0.3

Prompt: Fill in the blank: the reported viability, T/C of CC1(C)CCC(CN2CCN(c3ccc(C(=O)NS(=O)(=O)c4ccc(NCC5CCOCC5)c([N+](=O)[O-])c4)c(Oc4cnc5[nH]ccc5c4)c3)CC2)=C(c2ccc(Cl)cc2)C1 + Cc1ccccc1N=Nc1ccc(NC(=O)c2ccnn2C)c(C)c1 is ____.
Response: 30.9

Prompt: Further, for O=C(c1cc(Cc2n[nH]c(=O)c3ccccc23)ccc1F)N1CCN(C(=O)C2CC2)CC1 + Cc1cncc(-c2nc(NCCc3c[nH]c4ccccc34)c3ncn(C(C)C)c3n2)c1 ?
Response: 130
